Test system: Klebsiella pneumoniae
Assay: Antimicrobial activity against rifampin resistant Klebsiella pneumoniae 52deltaacrB containing isogenic acrB knockout assessed as growth inhibition by Etest method
Assay type: functional
Measured Property: MIC (µg/mL)
Only the number, expressed in µg/mL, is required.

# example entries with known answers
>  <Compound>
CO/N=C(\C(=O)N[C@@H]1C(=O)N2C(C(=O)O)=C(COC(C)=O)CS[C@H]12)c1csc(N)n1 [CEFOTAXIME]

>  <MIC [µg/mL]>
0.06

$$$$
>  <Compound>
CN(C)[C@@H]1C(O)=C(C(N)=O)C(=O)[C@@]2(O)C(O)=C3C(=O)c4c(O)cccc4[C@@](C)(O)[C@H]3C[C@@H]12 [TETRACYCLINE]

>  <MIC [µg/mL]>
0.25

$$$$
>  <Compound>
C[C@@H](O)[C@H]1C(=O)N2C(C(=O)O)=C(S[C@@H]3CN[C@H](C(=O)N(C)C)C3)[C@H](C)[C@H]12 [MEROPENEM]

>  <MIC [µg/mL]>
0.03

$$$$

// query MIC value for entry C[C@H]1COc2c(N3CCN(C)CC3)c(F)cc3c(=O)c(C(=O)O)cn1c23.C[C@H]1COc2c(N3CCN(C)CC3)c(F)cc3c(=O)c(C(=O)O)cn1c23.O [LEVOFLOXACIN]
0.006

// query MIC value for entry CO[C@@]1(NC(=O)Cc2cccs2)C(=O)N2C(C(=O)O)=C(COC(N)=O)CS[C@@H]21 [CEFOXITIN]
4

// query MIC value for entry C[C@@H](O)[C@H]1C(=O)N2C(C(=O)O)=C(S[C@@H]3CN[C@H](C(=O)Nc4cccc(C(=O)O)c4)C3)[C@H](C)[C@H]12
0.012

// query MIC value for entry O=C(N[C@H](CO)[C@H](O)c1ccc([N+](=O)[O-])cc1)C(Cl)Cl [CHLORAMPHENICOL]
1
